test system: HepG2-TUBA1B-RELA; assay: lowest phenotypically active concentration; higher = less potent; details: treatment time: 24 h
MEASUREMENT TYPE: lowest phenotypically active concentration

O=C(NOCC1CC1)c1ccc(F)c(F)c1Nc1ccc(I)cc1Cl | ≤ 0.3 µM
O=C1Nc2ccc(F)cc2C1=C1Nc2ccccc2C1=NO | 1 µM
CC(C)(C)c1nc(-c2cccc(NS(=O)(=O)c3c(F)cccc3F)c2F)c(-c2ccnc(N)n2)s1 | ≤ 0.3 µM
Cc1c[nH]c2nccc(Oc3c(F)cc(Nc4cc(Cl)nc(N)n4)cc3F)c12 | ≤ 0.3 µM
Cc1c(CN2CCN(C(=O)[C@H](C)O)CC2)sc2c(N3CCOCC3)nc(-c3cnc(N)nc3)nc12 | ≤ 0.3 µM

====

test system: HepG2-CANX-COX4; assay: phenotypically active (imaging signature differs from DMSO and reproducible) at any of 0.3-9 uM (binary (1 = active, 0 = inactive)); higher = active; conditions: treatment time: 24 h
Counter-ions that a name gives are not always drawn.
Below, each entry is listed alongside its reported phenotypically active.
MEASUREMENT TYPE: phenotypically active

Nc1nnc2[nH]c3ccccc3nc1-2 | 1
CNCCC(Oc1ccc(C(F)(F)F)cc1)c1ccccc1 (centres undefined) [fluoxetine] | 0
Clc1ccc(C2(c3ccc(-c4cn[nH]c4)cc3)CCNCC2)cc1 | 1
Cc1ccc([N+](=O)[O-])cc1S(=O)(=O)N(C)/N=C/c1cnc2ccc(Br)cn12 | 1
O=C1c2c(O)cccc2Cc2cccc(O)c21 [anthralin] | 0
Cc1n[nH]c(=O)[nH]c1=O [Azathymine, 6] | 0
CCOC(=O)C1=C[C@]2(CC)CCCN3CCc4c(n1c1ccccc41)[C@@H]32 [Vinpocetine] | 0
CC1(C)NC(=O)N(c2ccc([N+](=O)[O-])c(C(F)(F)F)c2)C1=O [nilutamide] | 0
O=S(=O)(c1ccccc1)N(CC(F)(F)F)c1ccc(C(O)(C(F)(F)F)C(F)(F)F)cc1 | 0
COc1ccc(CCN(C)CCCC(C#N)(c2ccc(OC)c(OC)c2)C(C)C)cc1OC (centres undefined) [verapamil] | 0
O=C1NC(=O)[C@@H](c2cn3c4c(cccc24)CCC3)[C@@H]1c1c[nH]c2ccccc12 [tivantinib] | 1
Cc1noc(C)c1Cn1cc(C#N)c2cc(Oc3ccc(NC(=O)[C@@H]4CCCN4)cc3)ccc21 | 0
CN(C)CCCSc1ccccc1NC(=O)/C=C/c1ccccc1 [Cinanserin hydrochloride] | 0
CN(C)CCCNc1c2c(=O)n(C)c(=O)nc-2n(C)c2ccccc12 | 1
CN(N=O)C(=O)N[C@@H](C=O)[C@@H](O)[C@H](O)[C@H](O)CO.CN(N=O)C(=O)N[C@H]1C(O)O[C@H](CO)[C@@H](O)[C@@H]1O [streptozotocin] | 0
O=C1NC(=O)/C(=C\c2cccc(C(F)(F)F)c2)S1 | 0
NC(=O)c1cccc(-c2cc(Nc3ccc(OC(F)(F)F)cc3)ncn2)c1 | 0
CN(C)/N=N/c1[nH]cnc1C(N)=O [dacarbazine] | 0
CN1CCc2cccc3c2[C@H]1Cc1ccc(O)c(O)c1-3 [r(-)-apomorphine] | 0

====

tested on: WPMY1-GM130-SQSTM1; experiment: phenotypically active (imaging signature differs from DMSO and reproducible) at any of 0.3-9 uM (binary (1 = active, 0 = inactive)); higher = active; settings: treatment time: 24 h
Where a name gives a salt, the structure may show the parent alone.
Possible outcomes: label 1 for active, label 0 for inactive

Nc1ccc(C(=O)O)c(O)c1 [aminosalicylate] | label 0
O=c1cc(-c2ccc(O)cc2)oc2c(C3O[C@H](CO)[C@@H](O)[C@H](O)[C@H]3O)c(O)cc(O)c12 (some centres undefined) | label 0
CC[C@@H]1C(=O)OC[C@@H]1Cc1cncn1C [Pilocarpine hydrochloride] | label 0
COc1ccc(C(=O)C2CCN(CC(=O)N(Cc3nc4c(c(=O)[nH]3)COCC4)CC3CC3)CC2)cc1 | label 0
CCOC(=O)CCNc1cc(N2CCc3ccccc3CC2)nc(-c2ccccn2)n1 | label 1
CCc1c(C(=O)Nc2cc(S(=O)(=O)N(CC)CC)ccc2O)[nH]c(C)c1C(C)=O | label 1
CCCCc1oc2ccc(NS(C)(=O)=O)cc2c1C(=O)c1ccc(OCCCN(CCCC)CCCC)cc1 | label 0
CC(C)(C)c1ccc(C(=O)Nc2cn3cc(-n4ccnc4)ccc3n2)cc1 | label 0
Cc1c[nH]c2nccc(Oc3c(F)cc(Nc4cc(Cl)nc(N)n4)cc3F)c12 | label 1

====

test system: HepG2-ACTB-RAB5A; assay: lowest phenotypically active concentration; higher = less potent; settings: treatment time: 24 h
Counter-ions that a name gives are not always drawn.
Below, each entry is listed alongside its reported lowest phenotypically active concentration.
MEASUREMENT TYPE: lowest phenotypically active concentration (µM)

CCCc1cc(C)n(C)c(=O)c1CN(C)C(=O)c1cc(-c2ccc(N3CCN(C(C)C)CC3)nc2)cc2c1cnn2C(C)C | 9
CC1=C(/C=C/C(C)=C\C=C\C(C)=C\C(=O)O)C(C)(C)CCC1 | 1
O=C(CCCCCCC(=O)NO)NO | 9
Nc1ncnc2c1c(-c1cnc3[nH]ccc3c1)nn2C1CCCC1 | 1
CN1c2ccccc2C(=O)N2CCc3c([nH]c4ccccc34)[C@H]21 | 1
Nc1ncnc2[nH]nc(Nc3ccc(F)cc3)c12 | 9
COc1cc2c(cc1O)CC[C@@H]1[C@@H]2CC[C@]2(C)[C@@H](O)CC[C@@H]12 | 3
Cc1cc2c(F)c(Oc3ncnn4cc(OC[C@@H](C)O)c(C)c34)ccc2[nH]1 | 9
CC(CN1c2ccccc2Sc2ccccc21)N(C)C (stereo unspecified) | 9
O=c1[nH]cc(F)c(=O)[nH]1 | 3
O=C1Cc2c([nH]c3ccc(Br)cc23)-c2ccccc2N1 | 3
COc1cc2nc(-c3cc(F)ccc3O)nc(N[C@@H]3CNC[C@H]3C(C)(C)O)c2cc1OC | 1
CCC(C)(C)C(=O)O[C@H]1C[C@@H](C)C=C2C=C[C@H](C)[C@H](CC[C@@H]3C[C@@H](O)CC(=O)O3)[C@H]21 | 1
CCOC(=O)c1c(CSc2ccccc2)n(C)c2cc(Br)c(O)c(CN(C)C)c12 | 9
Oc1ccc(-c2nc(-c3ccc(F)cc3)c(-c3ccncc3)[nH]2)cc1 | 3
Cc1cccc(-c2nn(C(=S)Nc3ccccc3)cc2-c2ccnc3ccccc23)n1 | 9
CCc1cc(-c2n[nH]c(C)c2-c2ccc3c(c2)OCCO3)c(O)cc1O | 3
CN(C)CC(=O)N1CCC[C@@H](n2nc(-c3ccc(Oc4ccccc4)cc3)c3c(N)ncnc32)C1 | 1
NC(=O)Nc1sc(-c2ccc(F)cc2)cc1C(N)=O | 9
Cc1cn(CCN2CCN(c3ccccc3-c3cc(C#N)cc(C(=O)NCCCN4CCCC4)c3)CC2)c2ccccc12 | 1
CCN(CC)CCNc1ccc(CO)c2sc3ccccc3c(=O)c12 | 9
O=C(NC(NC(=S)Nc1ccc(F)c([N+](=O)[O-])c1)C(Cl)(Cl)Cl)C(c1ccccc1)c1ccccc1 (stereo unspecified) | 9
CC(C)(C)n1nc(-c2ccc(Cl)cc2)c2c(N)ncnc21 | 3
CC(C)COCC(CN(Cc1ccccc1)c1ccccc1)N1CCCC1 (stereo unspecified) | 9
CNC(=O)c1cc(Oc2ccc(NC(=O)Nc3ccc(Cl)c(C(F)(F)F)c3)c(F)c2)ccn1 | 3
CC1(C)CC(=O)C2=C(C1)NC(=S)NC2c1cccc(O)c1 (stereo unspecified) | 1
CC[C@H](CO)Nc1nc(Nc2cccc(-c3ccccn3)c2)c2ncn(C(C)C)c2n1 [(R)-DRF053 dihydrochloride] | 9

====

system: WPMY1-GM130-SQSTM1; assay: lowest phenotypically active concentration; higher = less potent; details: treatment time: 24 h
Counter-ions that a name gives are not always drawn.
Below, each entry is listed alongside its reported lowest phenotypically active concentration.
MEASUREMENT TYPE: lowest phenotypically active concentration (µM)

NC(=O)Nc1cc(-c2cccc(F)c2)sc1C(=O)N[C@H]1CCCNC1 [AZD 7762 hydrochloride] | 1
CN1[C@@H]2CC[C@H]1C[C@@H](OC(c1ccccc1)c1ccccc1)C2 [benztropine] | 9
COc1cc(N2CCC(O)CC2)ccc1Nc1cc(Nc2ccccc2S(=O)(=O)C(C)C)c2cc[nH]c2n1 [Mps1-IN-1 dihydrochloride] | 3
C[C@@H]1COCCN1c1cc(C2(S(C)(=O)=O)CC2)nc(-c2cccc3[nH]ccc23)n1 | 1
NC(=O)c1cccc(-c2cc(Nc3ccc(OC(F)(F)F)cc3)ncn2)c1 | 9

====

test system: A549-ACTB-RAB5A; experiment: lowest phenotypically active concentration; higher = less potent; conditions: treatment time: 24 h
Counter-ions that a name gives are not always drawn.
Below, each entry is listed alongside its reported lowest phenotypically active concentration.
MEASUREMENT TYPE: lowest phenotypically active concentration (µM)

CCN(CCO)CCCC(C)Nc1ccnc2cc(Cl)ccc12 (stereo not given) [hydroxychloroquine] | 9
CC(C)c1cnn2c(NCc3ccccc3)cc(NCCCCCCN)nc12 [BS 181 dihydrochloride] | 9
Cc1noc(C)c1Cn1cc(C#N)c2cc(Oc3ccc(NC(=O)[C@@H]4CCCN4)cc3)ccc21 | 9
Cc1ccc(-n2nc(C(C)(C)C)cc2NC(=O)Nc2ccc(OCCN3CCOCC3)c3ccccc23)cc1 | 3
CNC(=O)c1ccccc1Sc1ccc2c(/C=C/c3ccccn3)n[nH]c2c1 [Axitinib] | 1
COc1ccc(CCNCc2ccc(OCc3ccc(Cl)nc3)c(OC)c2)cc1OC [SBE 13 hydrochloride] | 3
Cc1ccc(/C(=C/CN2CCCC2)c2cccc(/C=C/C(=O)O)n2)cc1 [acrivastine] | 1
Cc1cc(F)c(Nc2ncnc3cc(OCc4ccccc4)ccc23)cc1O | 9
COc1ccccc1OCCNCC(O)COc1cccc2[nH]c3ccccc3c12 (stereo not given) [Carvedilol] | 9
CC(C)(C)n1nc(-c2ccc(Cl)cc2)c2c(N)ncnc21 | 1
Cc1cc(CS(=O)(=O)c2ccccc2)cc(OCc2ccc(CN3CCC[C@@H]3CO)cc2)c1 [PF 543 hydrochloride] | 9
COc1cc(C[C@H]2C(=O)OC[C@@H]2Cc2ccc(OC)c(OC)c2)ccc1O [Arctigenin] | 3
CN(C)CCCN1c2ccccc2CCc2ccc(Cl)cc21 [clomipramine] | 3
Cc1ccc(Nc2nccc(N(C)c3ccc4c(C)n(C)nc4c3)n2)cc1S(N)(=O)=O [pazopanib] | 1
Nc1ncnc(Nc2ccc(OCc3ccccc3)c(Cl)c2)c1/C=N/OCCN1CCOCC1 | 3
CNC(=O)c1cc(Oc2ccc(NC(=O)Nc3ccc(Cl)c(C(F)(F)F)c3)cc2)ccn1 [sorafenib] | 3
COc1ccc(Cl)cc1NC(=O)Nc1cc(C)nc2ccccc12 | 3
N#Cc1c(C2CCNCC2)cc(-c2c(O)cccc2OCC2CC2)nc1N | 9
COc1ccc(CCN(C)CCCC(C#N)(c2ccc(OC)c(OC)c2)C(C)C)cc1OC (stereo not given) [verapamil] | 9
NCC(=O)Nc1ccc(-n2nc(C(F)(F)F)cc2-c2ccc3c(ccc4ccccc43)c2)cc1 | 1
N=C1NC(=O)/C(=C\c2ccc(O)cc2)S1 [Mirin] | 9
Cc1cccc(-c2n[nH]cc2-c2ccc(F)c(-c3cnn(CCO)c3)c2)n1 | 9
CN1CCN(c2ccc(-c3cccc(CN4CCOCC4)c3)cc2NC(=O)c2c[nH]c(=O)cc2C(F)(F)F)CC1 | 9
